MTD reference
# protocol: Toxicity in human HT-29 cells xenografted BALB/c nu/nu mouse assessed as maximum tolerable dose
# Assay type: organism-based
# measurement-context: in vivo

// worked examples, MTD included
> print(dat)
                            chemical.smiles  reported.measurement
1  CS(=O)(=O)CCO/N=C/c1cc(C(=O)NOCCO)c(Nc2ccc(I)cc2F)c(F)c1F           > 200 mg/kg
2  C#Cc1ccc(Nc2c(C(=O)NOCCO)cc(/C=N/OCCO)c(F)c2F)c(F)c1           > 200 mg/kg

MTD in this record for CC(=O)NCCO/N=C/c1cc(C(=O)NOCCO)c(Nc2ccc(I)cc2F)c(F)c1F : > 200 mg/kg
